molecular target: mMC1R (Mus musculus, UniProt Q01727); assay: cAMP based functional bioassay (CRE/β-galactosidase reporter), agonist activity at mMC1R
Sequence (Q01727 whole entry): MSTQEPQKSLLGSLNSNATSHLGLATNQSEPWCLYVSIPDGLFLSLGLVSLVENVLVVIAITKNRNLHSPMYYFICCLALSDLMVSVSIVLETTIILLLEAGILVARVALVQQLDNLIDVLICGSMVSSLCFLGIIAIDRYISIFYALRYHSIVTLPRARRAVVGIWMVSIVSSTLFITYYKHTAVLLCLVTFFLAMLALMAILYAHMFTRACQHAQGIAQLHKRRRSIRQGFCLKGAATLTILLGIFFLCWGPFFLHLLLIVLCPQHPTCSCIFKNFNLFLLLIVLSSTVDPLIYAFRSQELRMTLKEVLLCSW
pEC50: −log10 of the molar value.
Label label 1 when pEC50 >= 5; otherwise label 0.

## Task Please tell me: is the compound CC[C@H](C)[C@@H]1CNC(=N)N1C[C@@H]1CCCN1C[C@@H](Cc1ccccc1)N1CC(Cc2ccc(O)cc2)N(CC2CCC(C(C)(C)C)CC2)C1=N (some centres unmarked) at or over 5 in terms of pEC50?
## Result label 1

## Task Could you verify whether the entry CCC[C@@H]1CN([C@H](CC2CCCCC2)CN2CCC[C@H]2CN2C(=N)NC[C@H]2CC(C)C)C(=N)N1CC1CCC(C(C)(C)C)CC1 (some centres unmarked) shows pEC50 of no less than 5?
## Result label 1

## Task Is pEC50 for CC(C)C[C@@H]1CNC(=N)N1C[C@@H]1CCCN1C[C@@H](Cc1ccccc1)N1C[C@@H](C(C)C)N(CC23CC4CC(CC(C4)C2)C3)C1=N at or above 5?
## Result label 0

## Task Check if pEC50 >= 5 (inclusive). Item: CCC[C@@H]1CN([C@H](Cc2ccccc2)CN2CCC[C@H]2CN2C(=N)NC[C@H]2C(C)C)C(=N)N1CC12CC3CC(CC(C3)C1)C2
## Result label 1

====

molecular target: mMC5R (Mus musculus, UniProt P41149); test: cAMP based functional bioassay (CRE/β-galactosidase reporter), agonist activity at mMC5R
Sequence (P41149 whole entry): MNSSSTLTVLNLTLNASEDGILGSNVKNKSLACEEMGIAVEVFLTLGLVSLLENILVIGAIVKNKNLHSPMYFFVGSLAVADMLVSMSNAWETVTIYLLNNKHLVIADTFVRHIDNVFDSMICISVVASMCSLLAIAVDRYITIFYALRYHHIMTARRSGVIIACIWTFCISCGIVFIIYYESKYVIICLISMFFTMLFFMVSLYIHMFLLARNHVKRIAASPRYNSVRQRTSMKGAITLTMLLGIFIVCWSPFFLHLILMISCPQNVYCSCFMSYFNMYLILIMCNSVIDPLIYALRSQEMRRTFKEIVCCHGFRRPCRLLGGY
recorded endpoint: pEC50
In simple prose, pEC50 is minus the logarithm base ten of a concentration in moles per litre.

## Task Param item = CC(C)CCCN1C(=N)N([C@H](Cc2ccccc2)CN2CCC[C@H]2CN2C(=N)NC[C@H]2C(C)C)C[C@H]1C(C)C ; retrieve measured pEC50.
## Result 5.80

## Task // lookup pEC50 for CCC[C@@H]1CN([C@H](Cc2ccccc2)CN2CCC[C@H]2CN2C(=N)NC[C@H]2C(C)C)C(=N)N1CC1CCC(C(C)(C)C)CC1 (stereo partly shown)
## Result 6.03

## Task Recorded pEC50 for CC(C)C[C@@H]1CNC(=N)N1C[C@@H]1CCCN1C[C@@H](Cc1ccccc1)N1C[C@@H](C(C)C)N(CC23CC4CC(CC(C4)C2)C3)C1=N , please?
## Result 6.36

## Task Request the reported pEC50 associated with CC(C)[C@@H]1CNC(=N)N1C[C@@H]1CCCN1C[C@@H](CC1CCCCC1)N1C[C@@H](C(C)C)N(CC2CCC(C(C)(C)C)CC2)C1=N (stereo partly shown)
## Result 6.29

====

biological target: mMC4R (Mus musculus, UniProt P56450); experiment: cAMP based functional bioassay (CRE/β-galactosidase reporter), agonist activity at mMC4R; conditions: reported where receptor not activated to full activity
Sequence (P56450 whole entry): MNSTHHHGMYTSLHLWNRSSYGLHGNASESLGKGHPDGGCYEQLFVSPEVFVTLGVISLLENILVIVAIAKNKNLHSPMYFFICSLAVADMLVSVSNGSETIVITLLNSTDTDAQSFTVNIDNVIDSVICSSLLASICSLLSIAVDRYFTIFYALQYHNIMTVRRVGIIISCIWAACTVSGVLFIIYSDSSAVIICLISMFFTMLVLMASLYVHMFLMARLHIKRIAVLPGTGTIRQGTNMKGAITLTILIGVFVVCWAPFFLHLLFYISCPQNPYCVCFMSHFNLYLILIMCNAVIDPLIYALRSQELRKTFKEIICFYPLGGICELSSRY
Can you tell me mMC4R Activity @ 10 μM (relative activity, percent) for the items I'm about to list?
Kindly provide the numeric value in % only, without the unit symbol.

## Task Requested read-out: mMC4R Activity @ 10 μM (relative activity, percent). Entry: CC(C)[C@@H]1CNC(=N)N1C[C@@H]1CCCN1C[C@@H](CC1CCCCC1)N1C[C@@H]([C@@H](C)O)N(CC23CC4CC(CC(C4)C2)C3)C1=N [TPI 2509-22]
## Result 49

## Task Bench note: what mMC4R Activity @ 10 μM (relative activity, percent) did CCC[C@@H]1CN([C@H](CC2CCCCC2)CN2CCC[C@H]2CN2C(=N)NC[C@H]2CC(C)C)C(=N)N1CC12CC3CC(CC(C3)C1)C2 [TPI 2509-7] show?
## Result 51

## Task For CC(C)[C@@H]1CNC(=N)N1C[C@@H]1CCCN1C[C@@H](Cc1ccccc1)N1C[C@@H]([C@@H](C)O)N(CC23CC4CC(CC(C4)C2)C3)C1=N [TPI 2509-31] , what is its reported mMC4R Activity @ 10 μM (relative activity, percent)?
## Result 50

## Task mMC4R Activity @ 10 μM (relative activity, percent) for CCC[C@@H]1CN([C@H](CC2CCCCC2)CN2CCC[C@H]2CN2C(=N)NC[C@H]2C(C)C)C(=N)N1CC1CCC(C(C)(C)C)CC1 (stereo partly shown) [TPI 2509-26] ?
## Result 50

====

Task for the reader: assign each of the following compounds its reported EC50.
target: mMC3R (Mus musculus, UniProt P33033); experiment: cAMP based functional bioassay (CRE/β-galactosidase reporter), agonist activity at mMC3R
Sequence (P33033 whole entry): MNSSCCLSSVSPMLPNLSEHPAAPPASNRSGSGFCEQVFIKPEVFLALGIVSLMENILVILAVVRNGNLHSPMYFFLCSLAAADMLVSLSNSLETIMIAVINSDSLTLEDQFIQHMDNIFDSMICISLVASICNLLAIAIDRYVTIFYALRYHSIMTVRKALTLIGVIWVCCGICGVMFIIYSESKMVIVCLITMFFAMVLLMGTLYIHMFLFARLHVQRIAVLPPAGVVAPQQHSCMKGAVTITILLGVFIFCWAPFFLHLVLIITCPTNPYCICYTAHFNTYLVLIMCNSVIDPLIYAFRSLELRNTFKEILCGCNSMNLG
Form entry: value (nM) — number only.

## Task I'm curious: which EC50 was measured for CC(C)C[C@@H]1CNC(=N)N1C[C@@H]1CCCN1C[C@@H](CC1CCCCC1)N1C[C@@H]([C@@H](C)O)N(CC2CCC(C(C)(C)C)CC2)C1=N (some centres unmarked) tested on mMC3R (Mus musculus, UniProt P33033)?
## Result 210

## Task I'm curious: which EC50 was measured for CCC[C@@H]1CN([C@H](Cc2ccccc2)CN2CCC[C@H]2CN2C(=N)NC[C@H]2C(C)C)C(=N)N1CC12CC3CC(CC(C3)C1)C2 tested on mMC3R (Mus musculus, UniProt P33033)?
## Result 2000

## Task Short answer please: EC50, mMC3R (Mus musculus, UniProt P33033), entry CC(C)[C@@H]1CNC(=N)N1C[C@@H]1CCCN1C[C@@H](CC1CCCCC1)N1C[C@@H]([C@@H](C)O)N(CC2CCC(C(C)(C)C)CC2)C1=N (some centres unmarked)
## Result 220

## Task I'm curious: which EC50 was measured for CC(C)[C@@H]1CNC(=N)N1C[C@@H]1CCCN1C[C@@H](Cc1ccccc1)N1C[C@@H]([C@@H](C)O)N(CC2CCC(C(C)(C)C)CC2)C1=N (some centres unmarked) tested on mMC3R (Mus musculus, UniProt P33033)?
## Result 420

## Task mMC3R (Mus musculus, UniProt P33033) / EC50 / CC(C)[C@@H]1CNC(=N)N1C[C@@H]1CCCN1C[C@@H](Cc1ccccc1)N1C[C@@H]([C@@H](C)O)N(CC23CC4CC(CC(C4)C2)C3)C1=N : value?
## Result 360
